protocol-summary: M. tuberculosis growth inhibition, HTS (AID 449762);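 also: bacterial growth assessed after seven days of incubation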
run-parameters: M. tuberculosis H37Rv growth inhibition, 7H9 media; at 25 µM; stronger effect = higher value
In all, about 330,000 compounds went through this assay and about 1,900 (0.58%) were called active. Inconclusive results (about 4%) are left out. These entries were drawn from the full list. Entries with a potency or affinity are not part of this list.

compound	inhibition
Cc1ccccc1NS(=O)(=O)c1ccc(C(=O)N2CCN(c3ccccc3O)CC2)cc1	4.31% (inactive)
COc1ccc(CN2CCN(c3ccc(F)cc3)CC2)c(OC)c1OC	0.31% (inactive)
O=C(c1cnn2c(C(F)(F)F)cc(-c3ccccc3)nc12)N1CCCCC1c1cccnc1 (configuration not stated)	61.7% (inactive)
Cc1nc2ccc(NC(=O)c3ccc(S(=O)(=O)N(C)C)cc3)cc2s1	3.86% (inactive)
O=C(NNC(=O)c1cccc(-n2cnnn2)c1)c1ccccc1	4.62% (inactive)
COc1ccc(CC(=O)Nc2ccc(S(=O)(=O)Nc3onc(C)c3C)cc2)cc1OC	5.55% (inactive)
COc1ccccc1N(C)S(=O)(=O)c1ccc(C(=O)Nc2ccncc2)cc1	6.47% (inactive)
C/C(=N\NC(=S)NCc1ccccc1)c1ccc(Cl)s1	-0.65% (inactive)
Cc1ccc(C(=O)c2coc3ccc(O)cc23)cc1	2.44% (inactive)
CCOC(=O)C(/C=C(\C#N)C(=O)OCC)=C(/N)N1CCN(c2ccccc2)CC1	-6.55% (inactive)
Cc1cc(C)nc(/N=C(\N)Nc2cc([N+](=O)[O-])ccc2C)n1	1.78% (inactive)
CS(=O)(=O)Nc1ccc(C2=NN(C(=O)c3ccccc3)C(c3cccs3)C2)cc1 (configuration not stated)	26.9% (inactive)
COc1ccc(CN2CCN(S(=O)(=O)c3ccc(F)cc3)CC2)c(OC)c1OC	9.52% (inactive)
Cc1ccc(OCC(=O)N/N=C/C=C/c2ccco2)cc1	-6.27% (inactive)
Cc1cccc(C(=O)N2N=C(c3ccc(NS(C)(=O)=O)cc3)CC2c2cccs2)c1 (configuration not stated)	2.79% (inactive)
CC(C)N=C(NC#N)SCc1ccccc1F	-3.3% (inactive)
CCOC(=O)N/N=C\C=C\c1ccco1	-0.79% (inactive)
COc1ccc(C)cc1N/C(N)=N/c1nc(C)cc(C)n1	5.92% (inactive)
Cc1nccn1-c1cc(C(C)(C)C)nc2c(-c3ccccc3)cnn12	-1.52% (inactive)
Cc1cccc(NS(=O)(=O)c2ccc(C(=O)N3CCCC3)cc2)c1C	-8.71% (inactive)
C=C1C(=O)[C@@]23[C@H](O)C[C@@H]4C(C)(C)CC[C@H](O)[C@]4(C)[C@@H]2C[C@H](O)[C@@H]1[C@H]3O	62.1% (inactive)
O=C(Nc1ccccc1[N+](=O)[O-])C1=C(O)CCn2c1nc1ccccc12	-3.87% (inactive)

###

protocol-summary: M. tuberculosis growth inhibition, HTS (AID 449762);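 also: bacterial growth assessed after seven days of incubation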
run-parameters: M. tuberculosis H37Rv growth inhibition, 7H9 media; at 25 µM; stronger effect = higher value
Out of some 330,000 compounds screened, about 1,900 (0.58%) were called active. Another 4% or so got no clear call; they are omitted. A selection follows. Results with a measured potency or affinity are listed apart.
readout-name: inhibition

compound	readout-name	value
COc1ccccc1N1CCN(C(=O)C2CC=CCC2C(=O)O)CC1 (stereo not given)	inhibition	-1.32% (inactive)
CCOC(=O)c1c(NCc2ccccc2)n[nH]c1C	inhibition	-5.08% (inactive)
CCOC(=O)N1CCC(N2C(=O)c3ccc(C(=O)Nc4ccc(F)cc4F)cc3C2=O)CC1	inhibition	-5.69% (inactive)
CCOC(=O)CSc1ncc(OC)c(Sc2ccc(Cl)cc2)n1	inhibition	0.98% (inactive)
COc1ccccc1N1CCN(CC(=O)Nc2nccs2)CC1	inhibition	6.27% (inactive)
CCOC(=O)C1=C(CSc2nc3c(cc2C#N)CN(C)CC3)OC(N)=C(C#N)C1c1ccc(Cl)cc1 (stereo not given)	inhibition	-0.9% (inactive)
Cc1nc(C)c(C(=O)N(c2ccc(F)cc2)C(C(=O)NCC2CCCO2)c2ccccc2)s1 (stereo not given)	inhibition	6.83% (inactive)
O=c1c2ccccc2oc2cc(NCCCn3ccnc3)ccc12	inhibition	64.1% (inactive)
Cc1c(NC(=O)Nc2ccc(C(C)(C)C)cc2)c(=O)n(-c2ccccc2)n1C	inhibition	1.52% (inactive)
CC(=O)N/C(=C\c1ccccc1)C(=O)OCC(=O)NC(C)C12CC3CC(CC(C3)C1)C2 (stereo not given)	inhibition	10.4% (inactive)
Nc1ccc(Br)cc1Br	inhibition	-6.59% (inactive)
COc1cccc(C(=O)NCC2CCN(c3ccc(S(=O)(=O)N4CCOCC4)cc3)CC2)c1	inhibition	-13.8% (inactive)
CCc1ccc(C(N)=S)cc1	inhibition	40.3% (inactive)
COC(=O)c1cc(C(=O)OC)[nH]n1	inhibition	-0.31% (inactive)
CCOC(=O)Cc1cc(=O)[nH]c(Nc2nc3ccccc3o2)n1	inhibition	-2.99% (inactive)
O=C1CCCCN1CCC(=O)N1CCCC(N2CCN(c3cccc(Cl)c3)CC2)C1 (stereo not given)	inhibition	-10.9% (inactive)
CC(OC(=O)c1snc(C(=O)NC2CCCCC2)c1N)C(=O)NC1CCCCC1 (stereo not given)	inhibition	-2.81% (inactive)
Cc1oc2c(cc(NS(=O)(=O)c3ccc4c5c(cccc35)C(=O)N4)c3ccccc32)c1C(=O)OC(C)C	inhibition	51% (inactive)
COc1ccc(OC)c(N/C(C)=C/C(=O)c2ccc(C)o2)c1	inhibition	5.43% (inactive)
O=C(Nc1nc2ccccc2n1Cc1ccc(Cl)cc1)c1ccco1	inhibition	50.9% (inactive)
Cc1cccc(C)c1-n1c(C)nn(Cc2ccc([N+](=O)[O-])cc2)c1=O	inhibition	-15.4% (inactive)
COc1cc(/C=C(\C#N)c2nc3c(s2)CCCC3)ccc1O	inhibition	67.9% (inactive)
COc1cccc(CCc2nnc(CCC(=O)N3CCN(Cc4ccccn4)CC3)o2)c1	inhibition	-0.82% (inactive)
CC(C)NC(=O)N(O)C1N(Cc2ccc3c(c2)OCO3)C(=S)SC1(C)C (stereo not given)	inhibition	3.94% (inactive)
Cc1ccc(CNC(=O)NC23CC4CC(CC(C4)C2)C3)cc1	inhibition	7.32% (inactive)
OC1(c2ccccc2)CCN(Cc2ccccc2)C2CCCCC21 (stereo not given)	inhibition	-3.63% (inactive)
CC1CCc2nc(/C(C#N)=C/c3ccncc3)sc2C1 (stereo not given)	inhibition	17.6% (inactive)
CN1C(=O)c2ccccc2N(C)C1c1cccc(O)c1 (stereo not given)	inhibition	0.25% (inactive)
CCc1cc(C(N)=S)ccn1	inhibition	40.1% (inactive)
COC(=O)c1ccc(CSc2ncnc3c2sc2nc(N4CCOCC4)c4c(c23)CCCC4)o1	inhibition	-0.71% (inactive)
C=CCC1(CC=C)CCCN1C(=O)c1cc(COc2ccc(F)c(F)c2)on1	inhibition	11.7% (inactive)
Cc1noc2ncnc(Sc3c(Cl)cccc3Cl)c12	inhibition	47.8% (inactive)
CCC(=O)Nc1nc2ccccc2n1CCN(C)C	inhibition	-8.02% (inactive)
COc1ccc(CNC(=O)C2CCN(C(=O)c3csc(Nc4ccc(C)cc4)n3)CC2)cc1	inhibition	9.09% (inactive)
CCOC(=O)c1nnc(-c2ccc(C)cc2)nc1Sc1ccccc1Cl	inhibition	13.5% (inactive)
C#CC[N+]1(C)C2CCC1CC(O)C2 (stereo not given)	inhibition	6.2% (inactive)
CCOC(=O)c1sc(NC(=S)NC(=O)c2cccc(Cl)c2)c(C(=O)OCC)c1C	inhibition	3.64% (inactive)
COC(=O)CSc1ncnc2c1sc1nc(N3CCOCC3)c3c(c12)CCCC3	inhibition	-2.32% (inactive)
COc1ccc(C2C(C#N)=C(N)Oc3cc(C)n(Cc4ccncc4)c(=O)c32)cc1 (stereo not given)	inhibition	-7.68% (inactive)
CCOC(=O)c1nnc(-c2ccccc2)nc1NC	inhibition	-30.8% (inactive)
OC(c1ccccc1)C1CN(Cc2ccccc2)CCC1(O)c1ccccc1 (stereo not given)	inhibition	2.62% (inactive)
CC(C)(Oc1ccc(Cl)cc1)C(=O)NCc1n[nH]c(=O)c2ccccc12	inhibition	-7.84% (inactive)
O=C(c1cc(COc2ccc(-n3cncn3)cc2)on1)N1CCCC1	inhibition	2.05% (inactive)
COc1ccc(NC(=O)c2ccc(-n3cccn3)nc2)cc1	inhibition	-16.3% (inactive)
C=C1CCC[C@]2(C)C[C@H]3OC(=O)C(CNC(C)CC)[C@H]3CC12 (stereo not given in full)	inhibition	7.33% (inactive)
